assayed target: full-length human cGAS (Homo sapiens)
Construct: The cGAS assay was used to screen 100,000 compounds with full-length human cGAS; 6xHis; made in house
Sequence (Q8N884 whole entry): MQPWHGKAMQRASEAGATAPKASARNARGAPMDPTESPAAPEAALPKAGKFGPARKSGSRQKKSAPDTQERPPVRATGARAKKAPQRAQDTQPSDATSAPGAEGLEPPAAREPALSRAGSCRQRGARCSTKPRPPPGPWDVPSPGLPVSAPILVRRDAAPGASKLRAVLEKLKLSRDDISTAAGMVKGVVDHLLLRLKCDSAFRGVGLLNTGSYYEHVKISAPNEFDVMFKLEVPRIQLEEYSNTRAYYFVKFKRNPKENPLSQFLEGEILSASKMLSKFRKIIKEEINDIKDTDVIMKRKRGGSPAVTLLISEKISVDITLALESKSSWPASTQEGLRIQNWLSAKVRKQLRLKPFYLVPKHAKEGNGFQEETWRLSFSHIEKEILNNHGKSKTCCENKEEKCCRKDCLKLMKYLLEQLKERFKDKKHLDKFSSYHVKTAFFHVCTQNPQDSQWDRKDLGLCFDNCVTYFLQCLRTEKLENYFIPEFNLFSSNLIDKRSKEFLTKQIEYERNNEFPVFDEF
method notes: cGAS enzymatic assay (FP readout), inhibition of cGAS
Assay type: biochemical
measurement context: 5 mM Mg2+, 0.2 mM Mn2+; read-out: IC50 (5 mM Mg^2+, 0.2 mM Mn^2+)
pIC50: −log10 of the molar value.
outcome measure: pIC50

A. COc1cc2c(-n3ccnc3)ccnc2cc1Cl
B. Clc1ccc2c(-n3ccnc3)ccnc2c1
Input: Please indicate which has the smaller reported pIC50: A , or B . Kindly state the label of the option you pick.
Output: B
(B: 6.10, A: 7.32)
